testSystem: T1, human EGFRvIII-hFc protein (human, UniProt P00533 25-645)
T1 construct: extracellular domain; made in HEK293 cells, purified on protein A; also called immunogen A; hFc-tagged EGFRvIII protein; not shown: human IgG Fc fragment (hFc) of the pCpC vector
testName: ELISA, plate coated with human EGFRvIII-hFc, HRP secondary antibody, absorbance at 450 nm
parameter: EC50 (read off the curve)

Completed entries (count: 3):
>  <binder>
Chimeric antibody 7E5 (antibody, human IgG1, V domains shown, also called 7E5-2A9 (chimeric)) VH: EIQLQQSGPELVKPGASVKVSCKASGYSFTDYNMYWVKQSHGKSLEWIGYVDPSNGGTNYNQKFKGKATLTVDKSSSTAFMHLNSLTSEDSAVYYCARGFFDYWGQGTTLTVSS VL: DIVMTQSPSSLTVTAGEKVTMSCKSSQSLLNSGNQKNYLTWYQQKPGQPPKLLIYWASNRESGVPDRFTGSGSGKDFTLTISSVQAEDLAVYYCQNDYRYPVTFGAGTKLELK

>  <EC50 (read off the curve)>
~30 pM

$$$$
>  <binder>
Chimeric antibody 64F1 (antibody, human IgG1, V domains shown, also called 64F1F8 (chimeric)) VH: QVQLQQSGAELARPGASVKMSCKASGYTFSSYTMHWAKQRPGQGLEWIGYINPSSGYTKYNQKFKDKATLTADKSSSTAYMQLSSLTSEDSIVYYCARGGGRGFAYWGQGTLVTVSA VL: QIVLTQSPAIMSASPGERVTMTCSASSSVSYMYWYQQKPGSSPRLLIYDTSNLASGVPVRFSGSGSGTSYSLTISRVEAEDAATYYCQQWSSYSLTFGAGTKLELK

>  <EC50 (read off the curve)>
~10 pM

$$$$
>  <binder>
Chimeric antibody 75G7 (antibody, human IgG1, V domains shown, also called c75G7C6; wild-type chimeric antibody c75G7C6) VH: EVQLQQSGPELVKPGASVKIPCKASGYTFTDYNMDWVKQSHGKSLEWIGDINPNNGDTIYNQKFKGKATLTVDKSSSTAYMELRSLTSEDTAVYYCARGDYDGYYPVYYAMDYWGQGTSVTVSS VL: ENVLTQSPAIMSASPGEKVTMTCRASSSVSSSYLHWYQQKSGASPKLWIFSTSNLAAGVPARFSGSGSGTSYSLTVSSVEAEDAATYYCQQYSGYPLTFGAGTKLELK

>  <EC50 (read off the curve)>
~50 pM

$$$$

Exercise: Please give the measured EC50 (read off the curve) for this binder: Chimeric antibody 63A10 (antibody, human IgG1, V domains shown, also called c63A10A7) VH: QVQLQQSGAELARPGASVKMSCKASGYTFISFTMHWVKQRPGQGLEWIGYINPNSGYTKYNQKFKDKATLTAGQSSSTAYMQLSSLTSEDSAVYYCTRGGGRGFAYWGQGTLVTVSA VL: DILMTQSPSSMSVSLGDTVTITCHASQDINSNIGWLQQKPGKSFKALIYHGTNLEDGVPSRFSGSGSGADYSLTISSLESEDFADYYCVQYAQFPFTFGSGTKLEIK
Solution: ~30 pM
